Test system: Bacillus subtilis
Assay: Antibacterial activity against Bacillus subtilis assessed as growth inhibition at 50 ug/mL after 24 to 48 hr by cup-plate method
Assay type: functional
Conditions: read-out: DIZ
Measured zone of inhibition at 50 µg/mL, listed per entry.
Report as a plain number; the unit mm is understood.

INSERT INTO measurements (compound, measured_metric, meas_value) VALUES
  ('COc1ccc(F)cc1-c1cccc(-c2nn(CCO)c(=O)o2)c1', 'zone of inhibition at 50 µg/mL', 13),
  ('COc1ccc(F)cc1-c1cccc(-c2nn(CCOC3CCCCO3)c(=O)o2)c1 (stereo unspecified)', 'zone of inhibition at 50 µg/mL', 11),
  ('COc1ccc(F)cc1-c1cccc(-c2nn(CCOS(=O)(=O)c3ccc(Cl)c(Cl)c3)c(=O)o2)c1', 'zone of inhibition at 50 µg/mL', 10),
  ('COc1ccc(F)cc1-c1cccc(-c2n[nH]c(=O)o2)c1', 'zone of inhibition at 50 µg/mL', 8),
  ('COc1ccc(F)cc1-c1cccc(-c2nn(CCCN3C(=O)c4ccccc4C3=O)c(=O)o2)c1', 'zone of inhibition at 50 µg/mL', 13);

Req: Bench note: what zone of inhibition at 50 µg/mL did COc1ccc(F)cc1-c1cccc(-c2nn(CCOS(=O)(=O)c3ccc(F)c(Cl)c3)c(=O)o2)c1 show?
Resp: 20

====

Test system: Candida albicans
Experiment: Antifungal activity against Candida albicans assessed as growth inhibition at 100 ug/mL after 24 hr by cup-plate method
Type: functional
Settings: read-out: DIZ
MEASURED_METRIC: zone of inhibition at 100 µg/mL (mm)
Report as a plain number; the unit mm is understood.

INSERT INTO measurements (compound, meas_value) VALUES
  ('COc1ccc(F)cc1-c1cccc(-c2nn(CCCN)c(=O)o2)c1', 12),
  ('COc1ccc(F)cc1-c1cccc(-c2nn(CCO)c(=O)o2)c1', 8),
  ('COc1ccc(F)cc1-c1cccc(-c2nn(CCOS(=O)(=O)c3ccc(F)c(Cl)c3)c(=O)o2)c1', 7),
  ('COc1ccc(F)cc1-c1cccc(-c2nn(CCCCF)c(=O)o2)c1', 11),
  ('COc1ccc(F)cc1-c1cccc(-c2nn(CCOC3CCCCO3)c(=O)o2)c1 (configuration not stated)', 9);

Req: Query the reported zone of inhibition at 100 µg/mL for Candida albicans; item: COc1ccc(F)cc1-c1cccc(-c2nn(CCOS(=O)(=O)c3ccc(Cl)c(Cl)c3)c(=O)o2)c1
Resp: 9

Req: COc1ccc(F)cc1-c1cccc(-c2nn(CCCC#N)c(=O)o2)c1 ?
Resp: 16

Req: COc1ccc(F)cc1-c1cccc(-c2n[nH]c(=O)o2)c1 ?
Resp: 21

Req: COc1ccc(F)cc1-c1cccc(-c2nn(CCOS(=O)(=O)c3ccc(F)cc3)c(=O)o2)c1 ?
Resp: 6

Req: COC(=O)CCCn1nc(-c2cccc(-c3cc(F)ccc3OC)c2)oc1=O ?
Resp: 17

Req: COc1ccc(F)cc1-c1cccc(-c2nn(CCCN3C(=O)c4ccccc4C3=O)c(=O)o2)c1 ?
Resp: 10

Req: COC1=CC(=O)C[C@@H](C)[C@]12Oc1c(Cl)c(OC)cc(OC)c1C2=O ?
Resp: 35

====

Tested on: Aspergillus niger
Assay: Antifungal activity against Aspergillus niger assessed as growth inhibition at 50 ug/mL after 24 hr by cup-plate method
Type: functional
Conditions: read-out: DIZ
Give criterion met when the value for zone of inhibition at 50 µg/mL is at least 8 mm. Give criterion not met when it is less.

Example entries and their recorded answers appear below.
INSERT INTO results (substance_smiles, test_system, assigned_label) VALUES
  ('COc1ccc(F)cc1-c1cccc(-c2nn(CCCN3C(=O)c4ccccc4C3=O)c(=O)o2)c1', 'Aspergillus niger', 'criterion not met'),
  ('COc1ccc(F)cc1-c1cccc(-c2nn(CCOS(=O)(=O)c3ccc(F)c(Cl)c3)c(=O)o2)c1', 'Aspergillus niger', 'criterion met'),
  ('COc1ccc(F)cc1-c1cccc(-c2nn(CCO)c(=O)o2)c1', 'Aspergillus niger', 'criterion met'),
  ('COc1ccc(F)cc1-c1cccc(-c2nn(CCOS(=O)(=O)c3ccc(Cl)c(Cl)c3)c(=O)o2)c1', 'Aspergillus niger', 'criterion not met'),
  ('COc1ccc(F)cc1-c1cccc(-c2n[nH]c(=O)o2)c1', 'Aspergillus niger', 'criterion met');

Req: Determine whether this molecule has zone of inhibition at 50 µg/mL no lower than 8 mm: COc1ccc(F)cc1-c1cccc(-c2nn(CCOS(=O)(=O)c3ccc(F)cc3)c(=O)o2)c1
Resp: criterion not met

Req: COc1ccc(F)cc1-c1cccc(-c2nn(CCCN)c(=O)o2)c1 ?
Resp: criterion met

Req: COC1=CC(=O)C[C@@H](C)[C@]12Oc1c(Cl)c(OC)cc(OC)c1C2=O ?
Resp: criterion met

Req: COc1ccc(F)cc1-c1cccc(-c2nn(CCCCF)c(=O)o2)c1 ?
Resp: criterion met

Req: COc1ccc(F)cc1-c1cccc(-c2nn(CCCC#N)c(=O)o2)c1 ?
Resp: criterion met

Req: COC(=O)CCCn1nc(-c2cccc(-c3cc(F)ccc3OC)c2)oc1=O ?
Resp: criterion met

====

Measured inhibition in vivo at 10 mg/kg, listed per entry.
Tested on: Rattus norvegicus
Assay: Anti-inflammatory activity in Wistar albino Rattus norvegicus (rat) assessed as inhibition of carrageenan-induced paw edema at 10 mg/kg, po administered 30 min prior to carrageenan challenge measured after 2 hr by plethysmometric analysis relative to untreated control
Format: functional
Report as a plain number; the unit % is understood.

Req: Query the reported inhibition in vivo at 10 mg/kg for Rattus norvegicus; item: COc1ccc(F)cc1-c1cccc(-c2nn(CCOS(=O)(=O)c3ccc(F)cc3)c(=O)o2)c1
Resp: 63

Req: O=C(O)Cc1ccccc1Nc1c(Cl)cccc1Cl [DICLOFENAC SODIUM] ?
Resp: 77

====

Test system: Mus musculus
Experiment: Analgesic activity in Swiss albino Mus musculus (mouse) assessed as latency time of heat-induced paw licking/jumping behaviour at 10 mg/kg after 4 hr by Eddy's hot plate method (reference value: 4.57 +/- 0.11 secs)
Format: functional
Give class 1 when the value for Time is at least 6 s. Give class 0 when it is less.

INSERT INTO measurements (molecule, assigned_label) VALUES
  ('COC(=O)CCCn1nc(-c2cccc(-c3cc(F)ccc3OC)c2)oc1=O', 'class 1'),
  ('CC(C)=CCN1CCC2(C)c3cc(O)ccc3CC1C2C (configuration not stated)', 'class 1'),
  ('COc1ccc(F)cc1-c1cccc(-c2nn(CCOS(=O)(=O)c3ccc(F)c(Cl)c3)c(=O)o2)c1', 'class 0');

With those in mind, consider the next molecule.
Req: Determine whether this molecule has Time no lower than 6 s: COc1ccc(F)cc1-c1cccc(-c2nn(CCO)c(=O)o2)c1
Resp: class 0

====

Test system: Rattus norvegicus
Assay: Anti-inflammatory activity in Wistar albino Rattus norvegicus (rat) assessed as inhibition of carrageenan-induced paw edema at 10 mg/kg, po administered 30 min prior to carrageenan challenge measured after 3 hr by plethysmometric analysis relative to untreated control
Format: functional
Measured inhibition in vivo at 10 mg/kg, listed per entry.
Report as a plain number; the unit % is understood.

Record excerpt, results attached:
INSERT INTO assay_data (substance_smiles, measured_metric, meas_value) VALUES
  ('COc1ccc(F)cc1-c1cccc(-c2nn(CCCCF)c(=O)o2)c1', 'inhibition in vivo at 10 mg/kg', 95),
  ('COC(=O)CCCn1nc(-c2cccc(-c3cc(F)ccc3OC)c2)oc1=O', 'inhibition in vivo at 10 mg/kg', 87),
  ('COc1ccc(F)cc1-c1cccc(-c2nn(CCOS(=O)(=O)c3ccc(F)c(Cl)c3)c(=O)o2)c1', 'inhibition in vivo at 10 mg/kg', 65),
  ('COc1ccc(F)cc1-c1cccc(-c2nn(CCCN3C(=O)c4ccccc4C3=O)c(=O)o2)c1', 'inhibition in vivo at 10 mg/kg', 64);

Read the next record carefully.
Req: Query the reported inhibition in vivo at 10 mg/kg for Rattus norvegicus; item: COc1ccc(F)cc1-c1cccc(-c2nn(CCCC#N)c(=O)o2)c1
Resp: 85

====

Measured zone of inhibition at 50 µg/mL, listed per entry.
Test system: Pseudomonas aeruginosa
Experiment: Antibacterial activity against Pseudomonas aeruginosa assessed as growth inhibition at 50 ug/mL after 24 to 48 hr by cup-plate method
Format: functional
Conditions: read-out: DIZ
Report as a plain number; the unit mm is understood.

Record excerpt, results attached:
INSERT INTO assay_data (molecule, measured_metric, meas_value) VALUES
  ('COC(=O)CCCn1nc(-c2cccc(-c3cc(F)ccc3OC)c2)oc1=O', 'zone of inhibition at 50 µg/mL', 11),
  ('COc1ccc(F)cc1-c1cccc(-c2nn(CCCN)c(=O)o2)c1', 'zone of inhibition at 50 µg/mL', 17),
  ('COc1ccc(F)cc1-c1cccc(-c2nn(CCOS(=O)(=O)c3ccc(F)cc3)c(=O)o2)c1', 'zone of inhibition at 50 µg/mL', 10),
  ('COc1ccc(F)cc1-c1cccc(-c2nn(CCOS(=O)(=O)c3ccc(Cl)c(Cl)c3)c(=O)o2)c1', 'zone of inhibition at 50 µg/mL', 12),
  ('COc1ccc(F)cc1-c1cccc(-c2nn(CCCN3C(=O)c4ccccc4C3=O)c(=O)o2)c1', 'zone of inhibition at 50 µg/mL', 13),
  ('COc1ccc(F)cc1-c1cccc(-c2nn(CCOC3CCCCO3)c(=O)o2)c1 (configuration not stated)', 'zone of inhibition at 50 µg/mL', 18),
  ('COc1ccc(F)cc1-c1cccc(-c2n[nH]c(=O)o2)c1', 'zone of inhibition at 50 µg/mL', 10),
  ('COc1ccc(F)cc1-c1cccc(-c2nn(CCCCF)c(=O)o2)c1', 'zone of inhibition at 50 µg/mL', 18),
  ('CN[C@@H]1[C@H](O[C@H]2[C@H](O[C@H]3[C@H](O)[C@@H](O)[C@H](N=C(N)N)[C@@H](O)[C@@H]3N=C(N)N)O[C@@H](C)[C@]2(O)C=O)O[C@@H](CO)[C@H](O)[C@H]1O [STREPTOMYCIN]', 'zone of inhibition at 50 µg/mL', 21),
  ('COc1ccc(F)cc1-c1cccc(-c2nn(CCOS(=O)(=O)c3ccc(F)c(Cl)c3)c(=O)o2)c1', 'zone of inhibition at 50 µg/mL', 17);

Req: Bench note: what zone of inhibition at 50 µg/mL did COc1ccc(F)cc1-c1cccc(-c2nn(CCCC#N)c(=O)o2)c1 show?
Resp: 11

Req: COc1ccc(F)cc1-c1cccc(-c2nn(CCO)c(=O)o2)c1 ?
Resp: 18
